Measurement target: UniProt:P05186
Sequence (P05186 whole entry): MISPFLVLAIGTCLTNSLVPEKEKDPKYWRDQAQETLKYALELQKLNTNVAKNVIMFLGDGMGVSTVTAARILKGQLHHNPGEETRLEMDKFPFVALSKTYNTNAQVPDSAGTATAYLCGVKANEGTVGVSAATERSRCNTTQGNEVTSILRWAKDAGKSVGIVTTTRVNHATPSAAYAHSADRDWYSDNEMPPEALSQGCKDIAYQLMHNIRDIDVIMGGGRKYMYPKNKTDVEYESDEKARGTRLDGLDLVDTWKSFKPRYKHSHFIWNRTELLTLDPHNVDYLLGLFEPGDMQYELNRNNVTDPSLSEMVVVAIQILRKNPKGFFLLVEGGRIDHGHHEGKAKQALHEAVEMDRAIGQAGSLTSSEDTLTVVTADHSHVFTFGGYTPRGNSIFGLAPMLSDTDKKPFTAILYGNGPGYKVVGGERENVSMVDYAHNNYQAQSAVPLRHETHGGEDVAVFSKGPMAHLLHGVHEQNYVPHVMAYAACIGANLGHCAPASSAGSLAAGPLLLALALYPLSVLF
Experiment summary: potency against alkaline phosphatase TNAP – biochemical, luminescent, dose response, SAR follow-up (AID 1056)
The source made the active and inactive calls. No stated cut-off is given here; in the data, actives have a measured IC50 and inactives only a lower limit.
Your response should consist of one outcome taken from 1 (active), -1 (inactive)

Qu. What did the test return for CCCc1nn(C(C)=O)c2c1C(=O)CC(C)(C)C2 ?
Ans. 1

---
Qu. What did the test return for CCOc1ccc(C(C)C)cc1S(=O)(=O)Nc1cccnc1 ?
Ans. 1

Qu. What did the test return for c1cncc(-c2nnn[nH]2)c1 ?
Ans. -1

Qu. What did the test return for C=CCN1C(=O)NC2(O)C(=O)c3ccccc3C12O (centres undefined) ?
Ans. 1
